Data origin: ChEMBL document CHEMBL1201862

system: OVCAR-4; experiment: NCI tumour cell line growth inhibition, 48 h
The source made the active and inactive calls. Cut-off read from the data, not from the text of the source: active = GI50 up to about 1.1 µM and inactive = higher.
Outcome codes: yes (1) for active, no (0) for inactive

molecule	subjectOfTest	label
COc1ccc(/N=N/c2ccc3oc(=O)c(C(=O)Nc4ccccc4C)cc3c2)cc1	OVCAR-4	no (0)
O=[N+]([O-])c1nc(-c2ccccn2)[nH]c1[N+](=O)[O-]	OVCAR-4	no (0)
O=C(CC(=O)N1N=C(c2ccccc2)C(/N=N/c2ccc(Cl)cc2)C1=O)Nc1ccccc1Cl (centres undefined)	OVCAR-4	no (0)
CCOC(=O)c1ncn2c1[nH]c(=S)c1ccccc12	OVCAR-4	no (0)
COC(=O)C1=CC2OC1(C)C1(CC1)C2=O (centres undefined)	OVCAR-4	no (0)
Nc1ccc(-c2nc3cc(F)ccc3s2)cc1Br	OVCAR-4	no (0)
CCOC(=O)[C@@H]1C2C(=C[C@H]3[C@H]1C(=O)N1CCCC[C@H]31)CCCN2C(=O)OCc1ccccc1 (some centres undefined)	OVCAR-4	no (0)
O=S(=O)(O)SC/C=C\CSS(=O)(=O)O	OVCAR-4	no (0)
CN(C)S(=O)(=O)c1ccc(Nc2ccc(O)c3c2C(=O)c2c([N+](=O)[O-])ccc(O)c2C3=O)cc1	OVCAR-4	no (0)
Nc1nc(Cl)c(N)c(NCC2(CO)CCC2)n1	OVCAR-4	no (0)
CC1CC[C@@]23CCC4(C)[C@@](C=CC5[C@@]6(C)CCC(=O)C(C)(C)C6CC[C@]54C)(OC2=O)[C@@H]3[C@H]1C (some centres undefined)	OVCAR-4	no (0)
CCOC(=O)C1N(S(=O)(=O)c2ccc(C)cc2)CCC12c1ccccc1N(C(C)=O)C2C(/C=C/C(=O)OC)=C/C(=O)OC (centres undefined)	OVCAR-4	no (0)
COC(=O)C[C@H](CCSC)NC(=O)C[C@H](CCSC)NC(=O)C[C@H](CCSC)NC(=O)OC(C)(C)C	OVCAR-4	no (0)
CC(=O)Oc1c(C)c2c(c3ncccc13)OC(C)C2 (centres undefined)	OVCAR-4	no (0)
Cc1nn(C(=O)c2ccccc2O)c2c1C(c1ccco1)SC(=N)N2 (centres undefined)	OVCAR-4	no (0)
COc1ccc2[nH]c3c(C)cc([N+](=O)[O-])c(C)c3c2c1	OVCAR-4	no (0)
C=C1[C@@H](OC(C)=O)/C=C/C2C3C(=O)[C@@](C)(OC(C)=O)[C@H]([C@H](OC(C)=O)[C@]4(O)[C@@H](C)C(=O)O[C@H]4[C@H]1Cl)[C@@]23C (some centres undefined)	OVCAR-4	no (0)
CCOC(=O)Nc1cc2c(c(N)n1)N=C(c1ccc(OC)cc1)CN2	OVCAR-4	yes (1)
Nc1ncnc2c1cnn2Cc1cn(COCC(O)CO)nn1 (centres undefined)	OVCAR-4	no (0)
NS(=O)(=O)c1c(O)c2ccccc2oc1=O	OVCAR-4	no (0)
C=C(Cl)c1c(OC)cccc1OCc1ccccc1	OVCAR-4	no (0)
CN1C(=O)CC(CC(=O)C2CCCCC2=O)CC1=O (centres undefined)	OVCAR-4	no (0)
COc1cc2c(oc(=O)c3cc4ccoc4c(OC)c32)c2cccc(O)c12	OVCAR-4	no (0)
Oc1[nH]c(Nc2ccc(F)c(Cl)c2)nc2ncnc1-2	OVCAR-4	no (0)
COC(=O)C(C(=O)C(N)=O)c1csc(-n2nc(-c3ccccc3)cc2-c2ccccc2)n1 (centres undefined)	OVCAR-4	no (0)
Nc1nc(=O)[nH]c2c1cnn2COCCO	OVCAR-4	no (0)
O=C(c1ccc(Cl)cc1Cl)C1[C@H]2C(=O)N(c3ccc(Cc4ccc(N5C(=O)[C@@H]6ON(c7ccccc7)C(C(=O)c7ccc(Cl)cc7Cl)[C@@H]6C5=O)cc4)cc3)C(=O)[C@H]2ON1c1ccccc1 (some centres undefined)	OVCAR-4	no (0)
Cc1nn(C(=O)c2ccc(Cl)cc2)c2c1C(/C=C/c1ccccc1)SC(=N)N2 (centres undefined)	OVCAR-4	no (0)
O=C(CCC(=O)C1Cc2ccccc2C1=O)Nc1cccc(C(F)(F)F)c1 (centres undefined)	OVCAR-4	no (0)

* * *

system: OVCAR-4; test: NCI tumour cell line growth inhibition, 48 h
Calls of active or inactive are those of the source. Rule as the data show it: active = GI50 up to about 1.1 µM and inactive = higher. Where a SMILES comes first, the peptide text is derived from it. [ ]: non-standard residue; d: D form. The star is where a group is joined. Phe(4-NO2) = N[CH](Cc1ccc([N+](=O)[O-])cc1)C(=O)O; Boc = CC(C)(C)OC(=O)*; OBn = c1ccc(CO*)cc1
Measured GI50, listed per entry for reference.

compound	subjectOfTest	GI50
COc1ccc(CCC2c3cc(OC)c(OC)cc3CCN2C)cc1OC (configuration not stated)	OVCAR-4	> 100 µM (inactive)
Nc1ccc(Oc2ccc(C34CC5CC(C3)CC(c3ccc(Oc6ccc(N)c(O)c6)cc3)(C5)C4)cc2)cc1O	OVCAR-4	2.24 µM (inactive)
Cc1ccc(C(=O)Oc2ccc(/C=C3\CCC/C(=C\c4ccc(OC(=O)c5ccc(C)cc5)cc4)C3=O)cc2)cc1	OVCAR-4	> 100 µM (inactive)
COC(=O)c1ccccc1NC(=O)C(=O)Cc1nc2c3c(ccc2nc1O)C(=O)c1ccccc1C3=O	OVCAR-4	9.06 µM (inactive)
Cc1oc(N)c(S(=O)(=O)c2ccc(Cl)cc2)c1C	OVCAR-4	21.7 µM (inactive)
C[C@]12CCC(O)CC1=CC[C@@H]1[C@@H]2CC[C@]2(C)C(=O)[C@H](n3ccnc3)C[C@@H]12 (some centres not stated)	OVCAR-4	89.1 µM (inactive)
COC(=O)CCC(NC(=O)OC(C)(C)C)C(=O)NC(Cc1ccc([N+](=O)[O-])cc1)C(=O)NCC(=O)OCc1ccccc1 (configuration not stated) (Boc-Glu(OMe)-[Phe(4-NO2)]-Gly-OBn; configuration not given here)	OVCAR-4	> 92.3 µM (inactive)

* * *

system: SR; experiment: NCI tumour cell line growth inhibition, 48 h
Activity calls are given as the source filed them. Cut-off read from the data, not from the text of the source: active = GI50 up to about 1.1 µM and inactive = higher.
Classes used: True for active, False for inactive

In [3]: df
Out[3]:
                                   compound  label
0  O=C(Nc1sccc1S(=O)(=O)c1ccc(Cl)cc1)c1ccc(Cl)cc1Cl  False
1  CN1CCN(CCCCN2c3ccccc3Sc3ccc(N=[N+]=[N-])cc32)CC1  False
2  Cc1ccc(NC(=O)CC2SC(=N)NC2=O)cc1C (configuration not stated)  False
3  Cc1nn(C(=O)c2ccccc2O)c2c1C(c1ccco1)SC(=N)N2 (configuration not stated)  False
4  C[C@@H]1C[C@@H](O)[C@@]2(O)C13CC(=O)OC(C3)[C@@H](C)[C@@]2(C)CO (some centres not stated)  False
5  Cc1cc(C)[n+](CCOc2ccc(/C(=C(/Cl)c3ccccc3)c3ccccc3)cc2)c(C)c1.[O-][Cl+3]([O-])([O-])[O-]   True
6  CCOC(=O)/C(=C\c1c[nH]c2ccccc12)P(=O)(OCC)OCC  False

* * *

system: RXF 393; test: NCI tumour cell line growth inhibition, 48 h
The source made the active and inactive calls. No stated cut-off is given here; in the data, active = GI50 up to about 1.1 µM and inactive = higher.
propertyMeasured: GI50

In [3]: df
Out[3]:
                             compoundstring               result
0           O=C(Nc1ccn(CCO)c(=O)n1)c1ccccc1  > 100 µM (inactive)
1  C=CCN(CCN(CC=C)S(=O)(=O)c1ccc(C)cc1)S(=O)(=O)c1ccc(C)cc1  > 100 µM (inactive)
2  COC(=O)/C(C#N)=C/c1cc(C(C)(C)C)c(O)c(C(C)(C)C)c1   3.41 µM (inactive)
3        O=C(N/N=C\c1ccccc1)Nc1cccc2ccccc12   28.1 µM (inactive)

* * *

system: CCRF-CEM; assay: NCI tumour cell line growth inhibition, 48 h
Activity calls are given as the source filed them. Rule as the data show it: active = GI50 up to about 1.1 µM and inactive = higher.
propertyMeasured: GI50

>>> df
                                   compound               result
0  Cc1ccc(-c2nc3ccccc3c(=O)n2NC2OC(CO)C(O)C(O)C2O)cc1 (stereo not drawn)  > 100 µM (inactive)
1  CN(C)S(=O)(=O)c1ccc(Nc2ccc(O)c3c2C(=O)c2c([N+](=O)[O-])ccc(O)c2C3=O)cc1   4.39 µM (inactive)
2  CC1CCCC(CC(=O)O)(CC(=O)O)C1 (stereo not drawn)  > 100 µM (inactive)
3      Oc1[nH]c(Nc2ccc(F)c(Cl)c2)nc2ncnc1-2  > 100 µM (inactive)
4    CC(=O)NC1=C(NCCC(C)C)C(=O)c2ccccc2C1=O   > 50 µM (inactive)
5  O=C(CN(c1ccccc1)c1ccccc1)N1c2ccccc2C2C=CC=CC21 (stereo not drawn)   9.42 µM (inactive)
6  CCOC(=O)C(C)(C)Oc1ccc2c(=O)cc(-c3ccccc3)oc2c1     18 µM (inactive)
7  COc1cccc2c1OCC1Cc3ccccc3OC21 (stereo not drawn)   54.1 µM (inactive)
